biological target: HCV NS5B (Hepatitis C virus genotype 1b, UniProt Q9WMX2); construct: The protein was expressed with an 18 amino acid C-terminal truncation to enhance the solubility; assay: HCV NS5B RdRp enzyme assay; conditions: HCV NS5B RdRp genotype 1b; standard or modified assay not specified
Sequence (Q9WMX2 2420-2992): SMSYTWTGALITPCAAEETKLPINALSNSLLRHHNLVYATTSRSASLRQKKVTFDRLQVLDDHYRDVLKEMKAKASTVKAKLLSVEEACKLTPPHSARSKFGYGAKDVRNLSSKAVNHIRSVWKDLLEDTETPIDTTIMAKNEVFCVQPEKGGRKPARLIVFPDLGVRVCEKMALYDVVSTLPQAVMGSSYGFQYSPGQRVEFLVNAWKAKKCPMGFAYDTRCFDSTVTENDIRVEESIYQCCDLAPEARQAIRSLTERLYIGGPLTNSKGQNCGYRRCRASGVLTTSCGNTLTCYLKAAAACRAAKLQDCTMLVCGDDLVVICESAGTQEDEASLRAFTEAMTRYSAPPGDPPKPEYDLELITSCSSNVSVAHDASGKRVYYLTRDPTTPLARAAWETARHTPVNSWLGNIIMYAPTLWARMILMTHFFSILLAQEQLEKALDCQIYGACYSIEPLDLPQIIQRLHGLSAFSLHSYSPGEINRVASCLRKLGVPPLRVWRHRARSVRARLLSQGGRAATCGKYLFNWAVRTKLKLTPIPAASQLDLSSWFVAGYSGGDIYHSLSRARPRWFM

>  <chemical-structure>
CNC(=O)c1c(-c2ccc(F)cc2)oc2ccc(-c3cc(C(=O)NC4(c5nc6cnccc6o5)CC4)cc(F)c3C)c(F)c12

>  <system-under-test>
HCV NS5B (Hepatitis C virus genotype 1b, UniProt Q9WMX2)

>  <unit-of-measurement>
nM

>  <IC50>
20

$$$$
>  <chemical-structure>
CNC(=O)c1c(-c2ccc(F)cc2)oc2ccc(-c3cc(C(=O)NC4(c5nc6ccncc6o5)CC4)c(OC)cc3C)c(F)c12

>  <system-under-test>
HCV NS5B (Hepatitis C virus genotype 1b, UniProt Q9WMX2)

>  <unit-of-measurement>
nM

>  <IC50>
20

$$$$
>  <chemical-structure>
CNC(=O)c1c(-c2ccc(F)cc2)oc2ccc(-c3cc(C(=O)N[C@H](C)c4nc5cnccc5o4)c(OC)cc3C)c(F)c12

>  <system-under-test>
HCV NS5B (Hepatitis C virus genotype 1b, UniProt Q9WMX2)

>  <unit-of-measurement>
nM

>  <IC50>
40

$$$$
>  <chemical-structure>
CNC(=O)c1c(-c2ccc(F)cc2)oc2ccc(-c3cc(C(=O)NC4(c5ccc6ccncc6n5)CC4)ccc3C)c(F)c12

>  <system-under-test>
HCV NS5B (Hepatitis C virus genotype 1b, UniProt Q9WMX2)

>  <unit-of-measurement>
nM

>  <IC50>
20

$$$$
>  <chemical-structure>
CNC(=O)c1c(-c2ccc(F)cc2)oc2ccc(-c3cc(C(=O)NC4(c5nc6cnccc6o5)CC4)c(OC)cc3C)cc12

>  <system-under-test>
HCV NS5B (Hepatitis C virus genotype 1b, UniProt Q9WMX2)

>  <unit-of-measurement>
nM

>  <IC50>
10

$$$$
>  <chemical-structure>
CNC(=O)c1c(-c2ccc(F)cc2)oc2ccc(-c3cc(C(=O)NC4(c5ccc6ccncc6n5)CC4)cc(F)c3C)c(F)c12

>  <system-under-test>
HCV NS5B (Hepatitis C virus genotype 1b, UniProt Q9WMX2)

>  <unit-of-measurement>
nM

>  <IC50>
10

$$$$
>  <chemical-structure>
CNC(=O)c1c(-c2ccc(F)cc2)oc2ccc(-c3cc(C(=O)NC4(c5ccc6ncccc6n5)CC4)cc(F)c3C)c(F)c12

>  <system-under-test>
HCV NS5B (Hepatitis C virus genotype 1b, UniProt Q9WMX2)

>  <unit-of-measurement>
nM

>  <IC50>
70

$$$$

----------
target: HCV NS5B (Hepatitis C virus genotype 1b, UniProt Q9WMX2); construct: The protein was expressed with an 18 amino acid C-terminal truncation to enhance the solubility; experiment: HCV NS5B RdRp enzyme assay; details: HCV NS5B RdRp genotype 1b; standard or modified assay not specified
With a cut-off of 10 nM, any IC50 strictly below it is called t; any IC50 meeting it or above is called f.

>  <chemical-structure>
CNC(=O)c1c(-c2ccc(F)cc2)oc2ccc(-c3cc(C(=O)NC4(c5ccc6cccnc6n5)CC4)ccc3C)cc12

>  <assigned-category>
t

$$$$
>  <chemical-structure>
CNC(=O)c1c(-c2ccc(F)cc2)oc2ccc(-c3cc(C(=O)NC4(c5ccc6[nH]ccc6n5)CC4)ccc3C)c(F)c12

>  <assigned-category>
f

$$$$
>  <chemical-structure>
CNC(=O)c1c(-c2ccc(F)cc2)oc2ccc(-c3cc(C(=O)NC4(c5ccc6cnccc6n5)CC4)ccc3C)cc12

>  <assigned-category>
t

$$$$
>  <chemical-structure>
CNC(=O)c1c(-c2ccc(F)cc2)oc2ccc(-c3cc(C(=O)NC4(c5nc6cnccc6o5)CC4)ccc3C)cc12

>  <assigned-category>
f

$$$$
>  <chemical-structure>
CNC(=O)c1c(-c2ccc(F)cc2)oc2ccc(-c3cc(C(=O)NC4(c5nc6cnccc6o5)CC4)ccc3C)c(F)c12

>  <assigned-category>
f

$$$$
>  <chemical-structure>
CNC(=O)c1c(-c2ccc(F)cc2)oc2ccc(-c3cc(C(=O)N[C@H](C)c4nc5cnccc5o4)cc(F)c3C)c(F)c12

>  <assigned-category>
f

$$$$
>  <chemical-structure>
CNC(=O)c1c(-c2ccc(F)cc2)oc2ccc(-c3cc(C(=O)NC4(c5nc6cnccc6o5)CC4)c(OC)cc3C)c(F)c12

>  <assigned-category>
f

$$$$
>  <chemical-structure>
CNC(=O)c1c(-c2ccc(F)cc2)oc2ccc(-c3cc(C(=O)NC4(c5ccc6cnccc6n5)CC4)cc(F)c3C)c(F)c12

>  <assigned-category>
t

$$$$
>  <chemical-structure>
CNC(=O)c1c(-c2ccc(F)cc2)oc2ccc(-c3cc(C(=O)NC4(c5ccc6ccncc6n5)CC4)c(OC)cc3C)c(F)c12

>  <assigned-category>
f

$$$$
>  <chemical-structure>
CNC(=O)c1c(-c2ccc(F)cc2)oc2ccc(-c3cc(C(=O)NC4(c5ccc6cnccc6n5)CC4)c(OC)cc3C)c(F)c12

>  <assigned-category>
f

$$$$
>  <chemical-structure>
CNC(=O)c1c(-c2ccc(F)cc2)oc2ccc(-c3cc(C(=O)NC4(c5ccc6ccncc6n5)CC4)ccc3C)cc12

>  <assigned-category>
t

$$$$
>  <chemical-structure>
CNC(=O)c1c(-c2ccc(F)cc2)oc2ccc(-c3cc(C(=O)NC4(c5nc6cnccc6o5)CC4)cc(F)c3C)cc12

>  <assigned-category>
f

$$$$
>  <chemical-structure>
CNC(=O)c1c(-c2ccc(F)cc2)oc2ccc(-c3cc(C(=O)N[C@@H](C)c4nc5cnccc5o4)c(OC)cc3C)c(F)c12

>  <assigned-category>
f

$$$$
>  <chemical-structure>
CNC(=O)c1c(-c2ccc(F)cc2)oc2ccc(-c3cc(C(=O)NC4(c5ncc6cnccc6n5)CC4)ccc3C)c(F)c12

>  <assigned-category>
t

$$$$
